Experimental system: TTK (human)
Experimental protocol: KINOMEscan competition binding
Conditions: compound 10.0 µM
Field: label. Allowed values: satisfied (kinase still bound, per cent of control < 20%) or not satisfied (kinase still bound, per cent of control >= 20%).

## Input In the record for `CNC(=O)c1ccc(Nc2cc(Nc3ccccc3S(=O)(=O)C(C)C)c3cc[nH]c3n2)nc1` , is kinase still bound, per cent of control less than 20%?
## Output satisfied

## Input Input `CS(=O)(=O)N1CCN(Cc2cc3nc(-c4cccc5[nH]ncc45)nc(N4CCOCC4)c3s2)CC1` ; condition: kinase still bound, per cent of control strictly below 20%. Does it hold?
## Output not satisfied

## Input Below 20% on kinase still bound, per cent of control? Entry `COc1cc2ncn(-c3cc(OCc4ccccc4C(F)(F)F)c(C(N)=O)s3)c2cc1OC`
## Output not satisfied

## Input Does the reported kinase still bound, per cent of control of the following compound sit strictly below 20%? `O=C1NC(=O)/C(=C/c2ccc3nccc(-c4ccncc4)c3c2)S1`
## Output satisfied

## Input In the record for `C=CC(=O)Nc1cc(-n2c(=O)ccc3cnc4ccc(-c5cn[nH]c5)cc4c32)ccc1C` , is kinase still bound, per cent of control less than 20%?
## Output not satisfied

## Input Below 20% on kinase still bound, per cent of control? Entry `Cc1n[nH]c2ccc(-c3cncc(OC[C@@H](N)Cc4c[nH]c5ccccc45)c3)cc12`
## Output not satisfied

## Input Criterion: kinase still bound, per cent of control strictly below 20%. Is it met by `CCN(CC)CCCCNc1ncc2c(n1)N(C)C(=O)N(c1c(Cl)c(OC)cc(OC)c1Cl)C2` ?
## Output not satisfied

## Input Bench note: check whether `COc1cc(N2CCN(C)CC2)ccc1Nc1ncc2c(n1)N(C)c1ccccc1C(=O)N2C` shows kinase still bound, per cent of control below 20%
## Output not satisfied

## Input Does the reported kinase still bound, per cent of control of the following compound sit strictly below 20%? `N#CCNC(=O)c1ccc(-c2ccnc(Nc3ccc(N4CCOCC4)cc3)n2)cc1`
## Output not satisfied

## Input Is kinase still bound, per cent of control of `COCC(=O)NC/C=C/c1ccc2ncnc(Nc3ccc(Oc4ccc(C)nc4)c(C)c3)c2c1` strictly below 20%?
## Output not satisfied

## Input Does `O=C(Nc1cccc(Nc2ncc(Br)c(NCCc3cnc[nH]3)n2)c1)N1CCCC1` have kinase still bound, per cent of control strictly under 20%?
## Output satisfied

## Input Hello, I'm reviewing records and need to know if kinase still bound, per cent of control of `CCN1CCN(C(=O)Cc2ccc(Nc3ncc(F)c(Nc4ccc(C(=O)Nc5ccccc5Cl)cc4)n3)cc2)CC1` is below 20%. Could you check?
## Output satisfied

## Input Lab note: kinase still bound, per cent of control threshold 20%. Does this compound come in strictly under it? `CNC(=O)c1cc(Oc2ccc(NC(=O)Nc3ccc(Cl)c(C(F)(F)F)c3)cc2)ccn1`
## Output satisfied

---

Tested on: EGFR (human), P00533 [747-751 del / S ins]
Sequence (P00533 whole entry, looked up, stated change not applied): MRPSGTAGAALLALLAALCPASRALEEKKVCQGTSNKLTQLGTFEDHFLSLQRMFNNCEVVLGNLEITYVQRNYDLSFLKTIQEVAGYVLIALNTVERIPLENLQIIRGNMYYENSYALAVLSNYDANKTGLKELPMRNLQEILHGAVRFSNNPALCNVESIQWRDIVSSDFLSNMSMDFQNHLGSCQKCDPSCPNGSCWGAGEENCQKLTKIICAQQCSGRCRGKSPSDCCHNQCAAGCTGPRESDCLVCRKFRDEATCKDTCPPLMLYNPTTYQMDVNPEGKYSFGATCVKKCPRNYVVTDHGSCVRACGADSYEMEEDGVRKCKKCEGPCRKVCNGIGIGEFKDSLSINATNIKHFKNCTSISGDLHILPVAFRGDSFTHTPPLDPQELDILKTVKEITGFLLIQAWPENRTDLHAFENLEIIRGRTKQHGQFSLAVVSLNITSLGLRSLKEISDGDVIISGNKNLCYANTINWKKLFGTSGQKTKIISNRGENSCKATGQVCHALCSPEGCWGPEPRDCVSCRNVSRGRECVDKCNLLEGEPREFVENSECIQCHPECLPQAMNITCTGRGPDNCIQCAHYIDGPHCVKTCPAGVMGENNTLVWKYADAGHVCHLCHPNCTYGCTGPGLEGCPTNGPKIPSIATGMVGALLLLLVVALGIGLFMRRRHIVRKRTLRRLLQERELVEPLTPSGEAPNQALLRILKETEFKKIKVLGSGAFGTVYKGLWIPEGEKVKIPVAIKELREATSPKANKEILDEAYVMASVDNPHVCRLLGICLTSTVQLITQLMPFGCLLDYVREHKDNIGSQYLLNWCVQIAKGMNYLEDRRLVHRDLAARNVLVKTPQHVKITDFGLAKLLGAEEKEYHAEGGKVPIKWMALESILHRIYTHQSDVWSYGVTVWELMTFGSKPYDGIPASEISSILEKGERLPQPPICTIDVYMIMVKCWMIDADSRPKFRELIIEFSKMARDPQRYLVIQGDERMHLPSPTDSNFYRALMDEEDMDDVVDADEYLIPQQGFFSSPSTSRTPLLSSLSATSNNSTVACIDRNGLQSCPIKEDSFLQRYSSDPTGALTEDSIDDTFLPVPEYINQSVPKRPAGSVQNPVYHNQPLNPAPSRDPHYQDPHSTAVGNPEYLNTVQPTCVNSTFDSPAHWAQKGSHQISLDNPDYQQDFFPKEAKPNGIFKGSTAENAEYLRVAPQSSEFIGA
Experimental protocol: KINOMEscan competition binding
Conditions: compound 10.0 µM
Endpoint: kinase still bound, per cent of control (%)
Express your answer in %, writing the number without its unit.

## Input Jot down kinase still bound, per cent of control (EGFR (human), P00533 [747-751 del / S ins]) of `CNC(=O)c1ccc(Nc2cc(Nc3ccccc3S(=O)(=O)C(C)C)c3cc[nH]c3n2)nc1` .
## Output 100

## Input Write down the reported kinase still bound, per cent of control (system: EGFR (human), P00533 [747-751 del / S ins]) of `CCOc1cc(N2CCC(O)CC2)ccc1Nc1ncc2c(n1)N(C)c1ccccc1C(=O)N2C`
## Output 100

## Input Quote EGFR (human), P00533 [747-751 del / S ins] kinase still bound, per cent of control for entry `O=C1NC(=O)/C(=C/c2ccc3nccc(-c4ccncc4)c3c2)S1` .
## Output 84

## Input Give EGFR (human), P00533 [747-751 del / S ins] kinase still bound, per cent of control for the following molecule: `Cc1cc([C@@H](C)Nc2ccccc2C(=O)O)c2nc(N3CCOCC3)cc(=O)n2c1`
## Output 100

## Input For EGFR (human), P00533 [747-751 del / S ins], give kinase still bound, per cent of control of the listed molecule: `CNC(=O)Nc1ccc(-c2nc(N3CC4CCC(C3)O4)c3cnn(C4CCC5(CC4)OCCO5)c3n2)cc1`
## Output 50

## Input Please report kinase still bound, per cent of control with EGFR (human), P00533 [747-751 del / S ins] for item `CCCS(=O)(=O)Nc1ccc(F)c(C(=O)c2c[nH]c3ncc(Cl)cc23)c1F` .
## Output 75

## Input // fetch kinase still bound, per cent of control; item: `Cn1c(=O)n(-c2ccc(C(C)(C)C#N)cc2)c2c3cc(-c4cnc5ccccc5c4)ccc3ncc21` ; system: EGFR (human), P00533 [747-751 del / S ins]
## Output 100

## Input Recall the reported kinase still bound, per cent of control of `COc1cc2c(Nc3ccc(NC(=O)c4ccccc4)cc3)ncnc2cc1OCCCN1CCOCC1` when tested on EGFR (human), P00533 [747-751 del / S ins].
## Output 26

## Input Enter kinase still bound, per cent of control (test system EGFR (human), P00533 [747-751 del / S ins]) for `COc1ccc(N(C(=O)Oc2cc(C(=O)Nc3cccc(C(F)(F)F)c3)ccc2C)c2ccnc(Nc3ccc(N4CCN(C)CC4)cc3)n2)c(OC)c1`
## Output 0.4
